Each recorded value in this set is attributed to BigSolDB 2.1.

Settings: in isopropanol, 308.15 K
Readout type: solubility (mole fraction)
# output: bare number, no unit

I would be grateful if you could share the reported solubility (mole fraction) for N[C@@H](Cc1ccc([N+](=O)[O-])cc1[N+](=O)[O-])C(=O)O .
5.03e-05

----------
Conditions: in acetone, 298.15 K
Readout type: solubility (mole fraction)
# output: bare number, no unit

I would be grateful if you could share the reported solubility (mole fraction) for N[C@@H](Cc1ccc([N+](=O)[O-])cc1[N+](=O)[O-])C(=O)O .
2.56e-06

----------
Details: in n-propanol, 363.15 K
Readout type: solubility (mole fraction)
# output: bare number, no unit

I would be grateful if you could share the reported solubility (mole fraction) for N[C@@H](Cc1ccc([N+](=O)[O-])cc1[N+](=O)[O-])C(=O)O .
0.00241

----------
Details: in methanol, 323.15 K
Readout type: solubility (mole fraction)
# output: bare number, no unit

I would be grateful if you could share the reported solubility (mole fraction) for N[C@@H](Cc1ccc([N+](=O)[O-])cc1[N+](=O)[O-])C(=O)O .
0.00196

----------
Settings: in methanol, 308.15 K
Readout type: solubility (mole fraction)
# output: bare number, no unit

I would be grateful if you could share the reported solubility (mole fraction) for N[C@@H](Cc1ccc([N+](=O)[O-])cc1[N+](=O)[O-])C(=O)O .
0.00123

----------
Settings: in n-propanol, 273.15 K
Readout type: solubility (mole fraction)

I would be grateful if you could share the reported solubility (mole fraction) for N[C@@H](Cc1ccc([N+](=O)[O-])cc1[N+](=O)[O-])C(=O)O .
2.58e-06

----------
Settings: in isopropanol, 278.15 K
Readout type: solubility (mole fraction)

I would be grateful if you could share the reported solubility (mole fraction) for N[C@@H](Cc1ccc([N+](=O)[O-])cc1[N+](=O)[O-])C(=O)O .
2.96e-06

----------
Conditions: in water, 303.15 K
Readout type: solubility (mole fraction)
# output: bare number, no unit

I would be grateful if you could share the reported solubility (mole fraction) for N[C@@H](Cc1ccc([N+](=O)[O-])cc1[N+](=O)[O-])C(=O)O .
5.12e-05

----------
Conditions: in n-butanol, 333.15 K
Readout type: solubility (mole fraction)
# output: bare number, no unit

I would be grateful if you could share the reported solubility (mole fraction) for N[C@@H](Cc1ccc([N+](=O)[O-])cc1[N+](=O)[O-])C(=O)O .
8.34e-06

----------
Settings: in n-butanol, 343.15 K
Readout type: solubility (mole fraction)
# output: bare number, no unit

I would be grateful if you could share the reported solubility (mole fraction) for N[C@@H](Cc1ccc([N+](=O)[O-])cc1[N+](=O)[O-])C(=O)O .
1.15e-05

----------
Settings: in isopropanol, 293.15 K
Readout type: solubility (mole fraction)
# output: bare number, no unit

I would be grateful if you could share the reported solubility (mole fraction) for N[C@@H](Cc1ccc([N+](=O)[O-])cc1[N+](=O)[O-])C(=O)O .
1.56e-05

----------
Conditions: in water, 283.15 K
Readout type: solubility (mole fraction)

I would be grateful if you could share the reported solubility (mole fraction) for N[C@@H](Cc1ccc([N+](=O)[O-])cc1[N+](=O)[O-])C(=O)O .
1.12e-06
